test system: NCI/ADR-RES ovarian; assay: NCI-60 one-dose screen, 48 h (100 = growth as untreated, 0 = no growth, -100 = all killed); details: 10 µM unless noted
About 83,000 compounds went through this panel and 20% of them were active in at least one assay; those are over-represented in the sample as a whole. The source made the active and inactive calls. Rule for the calls: active = growth percent below 10; inactive = the rest.
readout.type: growth

Which growth value is on record for COc1cc2c(=O)n(CCCn3ccnc3)c3c4cc5c(cc4ccc3c2cc1OC)OCO5 ? 10.5% (inactive)

Item under review: CCCc1cc(=O)oc2c3c(c4c(c12)OC(C)(C)C=C4)O[C@@H](C)[C@H](C)C3=O . Reported growth? 0.517% (active)

What does the record list as growth for O=C1NCC(=O)N(Cc2ccco2)[C@H]1Cc1ccccc1 ? 104% (inactive)

What value of growth has been reported for the following compound? O=C1/C(=C/c2ccccc2[N+](=O)[O-])COc2ccc(O)c(O)c21 5.96% (active)

Could you share which growth value was measured for CCOC(=O)c1c(C)nc2c(c1N)/C(=C/c1ccc(OC)cc1)C(=O)N2Cc1ccc(F)cc1 ? 15.1% (inactive)

Endpoint output: growth of CCN(CC)S(=O)(=O)c1ccc(O)c(NC(=O)c2[nH]c(C)c(C(C)=O)c2CCc2ccc(Cl)cc2)c1 . Value? 50.5% (inactive)

What measured growth goes with NC(N)=N/N=C(/c1ccccc1)c1ccccc1F ? 59.6% (inactive)

# get_value(readout='growth', item= CC1=NN(c2cccc(Cl)c2)C(=O)/C1=C\c1cn(CC(O)CN2CCCCC2)c2ccccc12 (centres undefined) ) 75.3% (inactive)

So what does the record say about growth for Cc1[nH]c(-c2nc3ccccc3[nH]2)c(C)c1C(=O)NNc1ccc(Cl)cc1 ? 96.3% (inactive)

Please report the recorded growth for Cc1nn(-c2ccccc2)c2c1C(c1ccc([N+](=O)[O-])cc1)C(C#N)=C(N)O2 (centres undefined) . 104% (inactive)

Would you mind telling me what growth value was observed for COc1ccc(CN2C(=O)/C(=C\c3cc(OC)c(OC)c(OC)c3)c3ccccc32)cc1 ? 2.38% (active)

Recorded growth for CCCCS(=O)(=O)Oc1ccc(-c2nc(C)c(C(=O)OCC)s2)cc1C=O , please? 69% (inactive)

Item Cc1c(C(N)=O)sc2nc(C)n(/N=c3\scc(-c4ccccc4)n3Cc3ccccc3)c(=O)c12 has what recorded growth? 18.9% (inactive)

Record request: growth value, item Nc1ccc(CCCCc2ccccc2)c(Cl)c1 104% (inactive)

Value lookup for growth; key = O=C(Nc1ccccc1)c1sc(-c2cccc(C(F)(F)F)c2)cc1O 83.2% (inactive)

Which growth value is on record for COc1ccc(-c2nc3sc4c(c3c(=O)[nH]2)CCCC4)c2ccccc12 ? 5.34% (active)

Give the measured growth of CSc1ncc(C)c(Nc2ccc(Cl)cc2)n1 . 98.1% (inactive)

Give the measured growth of C[C@@H]1C(=O)N(C[C@@H](Cc2ccccc2)NC(=O)OCc2ccccc2)[C@]1(Cc1ccccc1)C(=O)OCc1ccccc1 . 21% (inactive)

Look at this compound and give its reported growth. N#C/C(=C\c1ccc2c(c1)OCO2)n1nnc2ccccc21 6.26% (active)

Form field: reported growth of NC(N)=N/N=C(/c1ccccc1)c1ccc(N)cc1 106% (inactive)

Field request: growth | item: Nc1nc(I)c2ncn(C3OC(CO)C(O)C3O)c2n1 (centres undefined) 105% (inactive)

Reported growth for N#Cc1c(N)n2c(nc1=Nc1ccc(Cl)cc1)sc1cc(Cl)ccc12 : what is it? 73.1% (inactive)

Quick check: growth of CCOC(=O)c1ccc(-c2ccc3cc(OC)ccc3c2)nc1C ? 108% (inactive)

What value of measured growth is listed for Cc1cc(-c2noc(C(F)(F)F)n2)ccc1N1CCN(c2cc(C(=O)N(C)C)no2)CC1 ? 69.5% (inactive)
